Attribution: patent US20250213575A1

# Target System: AgrA (Staphylococcus aureus)
# Sequence (P0A0I7 whole entry): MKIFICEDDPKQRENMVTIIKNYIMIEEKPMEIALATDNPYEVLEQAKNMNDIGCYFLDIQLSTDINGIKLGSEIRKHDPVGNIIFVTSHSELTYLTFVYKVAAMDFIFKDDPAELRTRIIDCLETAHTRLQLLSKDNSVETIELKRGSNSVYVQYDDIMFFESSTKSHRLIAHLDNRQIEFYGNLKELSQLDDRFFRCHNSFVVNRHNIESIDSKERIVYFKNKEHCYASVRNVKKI
# Assay Explanation: cell-based
# Set-up: species or system S. aureus USA300 strain UAMS-1625
# Assay Conditions: IC50 without HSA, LB medium, without HSA
pIC50: −log10 of the molar value.
Exercise: for every item that follows, state its recorded pIC50.

Prompt line: So what does the record say about pIC50 for Cc1ccc(S(=O)(=O)c2n[nH]n3c2nc(=O)c2ccc(N4CCC5(CCCN(C)C5)CC4)cc23)c(C)c1 ?
Response line: 5.02 to 5.72

Prompt line: So what does the record say about pIC50 for Cc1ccc(S(=O)(=O)c2nnn3c2[nH]c(=O)c2ccc(N4CCN5CCC[C@@H]5C4)cc23)c(C)c1 ?
Response line: 4.98 to 5.68

Prompt line: So what does the record say about pIC50 for Cc1ccc(S(=O)(=O)c2n[nH]n3c2nc(=O)c2ccc(N4CCOC5(CCNCC5)C4)cc23)c(C)c1 ?
Response line: 5.01 to 5.71

Prompt line: So what does the record say about pIC50 for Cc1ccc(S(=O)(=O)c2nnn3c2[nH]c(=O)c2ccc(N4CCN(C5CC5)CC4)cc23)c(C)c1 ?
Response line: > 5.68

Prompt line: So what does the record say about pIC50 for Cc1ccc(S(=O)(=O)c2nnn3c2[nH]c(=O)c2ccc(N4CC(C)N(C)C(C)C4)cc23)c(C)c1 (centres unmarked) ?
Response line: > 5.68

Prompt line: So what does the record say about pIC50 for Cc1ccc(S(=O)(=O)c2nnn3c2[nH]c(=O)c2ccc(N4CCOC5(CN(C)C5)C4)cc23)c(C)c1 ?
Response line: 5.00 to 5.69

Prompt line: So what does the record say about pIC50 for Cc1ccc(S(=O)(=O)c2nnn3c2[nH]c(=O)c2ccc(N4CCOC5(CNC5)C4)cc23)c(C)c1 ?
Response line: 4.98 to 5.68

Prompt line: So what does the record say about pIC50 for Cc1ccc(S(=O)(=O)c2nnn3c2[nH]c(=O)c2ccc(N4CCN(CCO)CC4)cc23)c(C)c1 ?
Response line: > 5.68

Prompt line: So what does the record say about pIC50 for Cc1ccc(S(=O)(=O)c2n[nH]n3c2nc(=O)c2ccc(N4CCC5(CC4)CN(C)CCO5)cc23)c(C)c1 ?
Response line: > 5.72

Prompt line: So what does the record say about pIC50 for Cc1ccc(S(=O)(=O)c2nnn3c2[nH]c(=O)c2ccc(N4CC(C)NC(C)C4)cc23)c(C)c1 (centres unmarked) ?
Response line: 4.97 to 5.67

Prompt line: So what does the record say about pIC50 for Cc1ccc(S(=O)(=O)c2nnn3c2[nH]c(=O)c2ccc(N4C[C@@H](C)N[C@@H](C)C4)cc23)c(C)c1 ?
Response line: 4.97 to 5.67

Prompt line: So what does the record say about pIC50 for Cc1ccc(S(=O)(=O)c2nnn3c2[nH]c(=O)c2ccc(N4CCN(C(C)(C)C)CC4)cc23)c(C)c1 ?
Response line: 5.00 to 5.69

Prompt line: So what does the record say about pIC50 for Cc1ccc(S(=O)(=O)c2n[nH]n3c2nc(=O)c2ccc(N4CC5(C4)CC(C)(O)C5)cc23)c(C)c1 ?
Response line: > 5.68

Prompt line: So what does the record say about pIC50 for Cc1ccc(S(=O)(=O)c2nnn3c2[nH]c(=O)c2cc(O)c(N4CC5(CN(C)C5)C4)cc23)c(C)c1 ?
Response line: > 5.68
